Ki for assorted compounds
biological target: NK1 receptor (Homo sapiens, UniProt P25103)
Sequence (P25103 whole entry, species assumed): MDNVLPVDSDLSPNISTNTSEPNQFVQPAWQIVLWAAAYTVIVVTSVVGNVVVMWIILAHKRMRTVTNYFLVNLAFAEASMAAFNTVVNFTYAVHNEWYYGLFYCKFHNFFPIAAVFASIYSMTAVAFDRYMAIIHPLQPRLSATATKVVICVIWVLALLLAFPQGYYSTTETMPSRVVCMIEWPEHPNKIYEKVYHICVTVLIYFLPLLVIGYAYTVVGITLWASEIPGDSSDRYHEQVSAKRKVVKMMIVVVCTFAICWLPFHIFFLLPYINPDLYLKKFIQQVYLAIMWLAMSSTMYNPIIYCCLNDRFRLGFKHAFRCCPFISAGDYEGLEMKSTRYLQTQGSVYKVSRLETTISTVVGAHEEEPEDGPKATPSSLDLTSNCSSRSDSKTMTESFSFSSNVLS
Numeric only. Scale: nM

Examples with answers:
compound="CC(C)=NOC[C@]12CC[C@@](CO[C@H](C)c3cc(C(F)(F)F)cc(C(F)(F)F)c3)(c3ccccc3)N(CC(=O)N1)C2 [Example 33]" endpoint_label=Ki readout_units=nM recorded_measurement=0.13
compound="C[C@@H](OC[C@@]1(c2ccccc2)CC[C@]2(CNC3CC3)CN1CC(=O)N2)c1cc(C(F)(F)F)cc(C(F)(F)F)c1 [Example 32]" endpoint_label=Ki readout_units=nM recorded_measurement=0.11
compound="C[C@@H](OC[C@@]1(c2ccccc2)CC[C@@H]2CN1CCN2C(N)=O)c1cc(C(F)(F)F)cc(C(F)(F)F)c1 [Example 5]" endpoint_label=Ki readout_units=nM recorded_measurement=0.1

For the next question, use this compound.
The compound listed as C[C@@H](OC[C@@]1(c2ccccc2)CC[C@]2(CNS(C)(=O)=O)CN1CC(=O)N2)c1cc(C(F)(F)F)cc(C(F)(F)F)c1 [Example 38] has a reported Ki of 0.12
